# System: male SD rats
# assay-comment: Subcutaneous infiltration anesthesia in rats (acupuncture stimulation of back skin)
# Format: in vivo, rat
# stated-conditions: 0.5%, 0.4 mL subcutaneous, rat back
Measured Duration of local anesthesia, listed per entry for reference.

> print(dat)
                                   molecule  observed.value
1  CC[N+](CC)(CC)CC(=O)Nc1c(C)cc(OC(=O)CCCCCCCN2CCCCC2C(=O)Nc2c(C)cccc2C)cc1C (centres unmarked)      24 to 48 h

Switching to the query record.
Input line: Data request, read-out Duration of local anesthesia, for `CC[N+](CC)(CC)CC(=O)Nc1c(C)cc(OC(C)=O)cc1C`
Output line: 12 to 18 h

----------
# System: left sciatic nerve of rats
# assay-comment: Sciatic nerve blocking experiment in rats (Von Frey filaments 60 g)
# Type: in vivo, rat
# stated-conditions: 1.0%, 0.2 mL near left sciatic nerve
measurement-name: Duration of local anesthesia

> print(dat)
                                   compound              measurement.name  observed.value
1  CC[N+](CC)(CC)CC(=O)Nc1c(C)cc(OC(C)C)cc1C [Compound 15]  Duration of local anesthesia      24 to 36 h
2  CC[N+](CC)(CC)CC(=O)Nc1c(C)cc(O)cc1C [Compound 1]  Duration of local anesthesia      12 to 18 h
3  CC[N+](CC)(CC)CC(=O)Nc1c(C)cc(N)cc1C [Compound 7]  Duration of local anesthesia            <2 h
4  CCCCCCOc1cc(C)c(NC(=O)C[N+](CC)(CC)CC)c(C)c1 [Compound 17]  Duration of local anesthesia      42 to 66 h
5  CC[N+](CC)(CCO)CC(=O)Nc1c(C)cc(OCCCCN2CCCCC2C(=O)Nc2c(C)cccc2C)cc1C (centres unmarked) [Compound 53]  Duration of local anesthesia      42 to 54 h

Input line: Look at this compound and give its reported Duration of local anesthesia. CCCCCN(C)CC(=O)Oc1cc(C)c(NC(=O)C[N+](CC)(CC)CC)c(C)c1 [Compound 28]
Output line: 48 to 60 h

Input line: Which Duration of local anesthesia value belongs to CC[N+](CC)(CC)CC(=O)Nc1c(C)cc(OC(=O)OCCCN2CCCCC2C(=O)Nc2c(C)cccc2C)cc1C (centres unmarked) [Compound 48] ?
Output line: 54 to 72 h

Input line: # Duration of local anesthesia lookup, item CC[N+](CC)(CCO)CC(=O)Nc1c(C)cc(OC(=O)CCCc2ccc(Cl)cc2)cc1C [Compound 31]
Output line: 24 to 30 h

Input line: Dear colleague, I am looking for the recorded Duration of local anesthesia of the following compound: CCN(CCCCCOc1cc(C)c(NC(=O)C[N+](CC)(CC)CC)c(C)c1)CC(=O)Nc1c(C)cccc1C [Compound 45]
Output line: 30 to 42 h

Input line: Which Duration of local anesthesia value is on record for C=CC[N+]1(CC(=O)Nc2c(C)cc(OC(=O)CCC)cc2C)CCCCC1 [Compound 26] ?
Output line: 48 to 60 h

Input line: What value of Duration of local anesthesia has been reported for the following compound? CCCCCOC(=O)Oc1cc(C)c(NC(=O)C[N+](CC)(CC)CC)c(C)c1 [Compound 27]
Output line: 30 to 42 h

Data provenance: patent US20230183169A1
